- System: A549 (human lung carcinoma)
- experimentalProtocol: MTT cell viability assay, A549
- Format: cell-based
- conditionSummary: Homo sapiens, A549, 72 h incubation, read-out: Half maximal inhibitory concentration (IC50)
Please go through the items and note down their IC50.

c1ccc(C[N+]23CN4CN(CP(C4)C2)C3)cc1 > 224 µM

Lab note: next molecule to report on.
The recorded IC50 for entry C=CC[N+]12CN3CN(CP(C3)C1)C2 equals > 263 µM

----------
- System: HeLa (human cervix carcinoma)
- experimentalProtocol: MTT cell viability assay, HeLa
- Assay type: cell-based
- conditionSummary: Homo sapiens, 72 h incubation, read-out: Half maximal inhibitory concentration (IC50)
For each of the molecules below, state its pIC50.
Answers are plain numbers, as −log10 of the molar value.

c1ccc(C[N+]23CN4CN(CP(C4)C2)C3)cc1 4.25

// switching to the query molecule
Field pIC50 (entry C=CC[N+]12CN3CN(CP(C3)C1)C2 ) reads 4.18

----------
Could you please report measured IC50 for the items listed next?
- Test system: NHDF (normal human dermal fibroblasts)
- experimentalProtocol: MTT cell viability assay, NHDF
- Assay type: cell-based
- conditionSummary: Homo sapiens, 72 h incubation, read-out: Half maximal inhibitory concentration (IC50)

c1ccc(C[N+]23CN4CN(CP(C4)C2)C3)cc1 > 224 µM

Now consider a different molecule.
response.value for C=CC[N+]12CN3CN(CP(C3)C1)C2 (field: IC50) = > 263 µM
